The measured values listed here are drawn from PubChem BioAssay.

# Tested on: Plasmodium falciparum Sir2 (PF13_0152, Sir2A)
# Assay Info: Plasmodium falciparum Sir2A binding compounds – biochemical, small-molecule microarray, 635 nm fluorescence, primary screen (AID 1098);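 note: score merges spot fluorescence intensity with its signal-to-noise ratio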
# Experimental Setup: fluorescence 635 nm, higher = more signal
Let's look at some molecules and their measured composite z-score.
I only need the number, thanks.

Answered examples (3):
Sample O=C1C2C=CC(C(O)c3ccc(Br)cc3)N(Nc3ccccc3)C2C(=O)N1c1ccccc1 (centres undefined) — what was its composite z-score?
0.489

Form field: reported composite z-score of CCCc1cc2c(n1Cc1ccc(OC)cc1)C(C)C1CN(C(=O)c3ccccc3)C(C)(C(=O)OC)C21 (centres undefined)
0.862

// returns reported composite z-score for input CC(C)C(CO)N1C(=O)[C@@H]2[C@H]3C(=O)OCC=C[C@H]3OC23C=CCN(Cn2nnc4ccccc42)C(=O)[C@@H]13 (some centres undefined)
0.335

Now for a further molecule.
Quick check: composite z-score of O=C1NC(=O)C2C1C=CC(C(O)c1ccc(-c3ccccc3)s1)N2Nc1ccccn1 (centres undefined) ?
0.115

----------
# Assay Info: plasmodial surface anion channel blockers, osmotic lysis – cell-based, P. falciparum Indochina, OD700, 2 h, primary screen (AID 1155);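 note: lysis reports solute entry through the parasite surface anion channel PSAC; channel blockers reduce lysis of infected cells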
# Experimental Setup: P. falciparum Indochina infected erythrocytes, higher = more signal, called active from +8 up or from −8 down
Decide by z-score: equal to or exceeding 0.2 means class 1, less means class 0.

Illustrative cases are given below, each with its answer.
# bool: z-score of `COCCOC(=O)N1C(=O)[C@@]2(c3cc(C#Cc4ccc(OC)cc4)ccc31)[C@H](C(=O)N1CCc3cc(OC)c(OC)cc3C1)[C@H]1C(=O)O[C@H](c3ccccc3)[C@H](c3ccccc3)N1[C@@H]2c1ccc(OCCO)cc1` >= 0.2
class 1

Check this compound for z-score at or above 0.2: CN1C(=O)C2C=CC(C(O)c3ccc(F)cc3)N(N3CCCCC3)C2C1=O (stereo not drawn)
class 1

Hi, just wondering whether `O=c1c2ccc(Br)cc2nc(-c2ccccc2)n1Cc1cccc(O)c1` shows z-score of 0.2 or higher.
class 1

# check: z-score of `CCCC=C(CCC)[C@@H](NS(=O)(=O)CC)c1ccccc1` is greater than or equal to 0.2
class 0

Answer whether z-score of `CCCC=C(CCC)[C@@H](NC(=O)Cc1ccccc1)c1ccc(C(=O)OC)cc1` is greater than or equal to 0.2.
class 0

New cases:
Confirm if z-score reported for the compound CN1C(=O)C2C=CC(C(O)COCc3ccccc3)N(Nc3ccccc3)C2C1=O (stereo not drawn) is 0.2 or above.
class 0

Determine whether this compound has z-score no lower than 0.2: `COc1cc2c(cc1OC)CN(C(=O)[C@@H]1[C@H]3C(=O)O[C@H](c4ccccc4)[C@H](c4ccccc4)N3[C@H](c3ccc(O)cc3)[C@@]13C(=O)Nc1ccc(C#CCNC(N)=O)cc13)CC2`
class 1

Could you please find out whether `C[N+](C)(C)CCCCNC(=O)[C@H]1C[C@H]2C(=O)NCC(=O)N2[C@H]1c1ccc(O)cc1` has z-score that meets 0.2 or exceeds it?
class 0

----------
# Assay Info: compound effects on lung adenocarcinoma cell viability – A549, calcein-AM fluorescence, 48 h, basal, profiling panel (AID 1162); note: test concentration not given here
# Experimental Setup: higher = more signal
Metric: z-score
Respond using a number only.

Example cases with answers are listed next.
Need z-score of Cc1ccccc1C(O)C1C=CC2C(=O)N(Cc3ccccc3)C(=O)C2N1n1cnnc1 (stereo not drawn) , thanks.
-1.2

Give its z-score value. Item: C=CCC(OC(C)=O)[C@@H]1[C@@H](N(Cc2ccc(-c3ccccc3)cc2)C(=O)c2cccc3ccccc23)c2cc(OCCCO)ccc2N1C(=O)c1ccc2ccccc2n1 (stereo partly drawn)
0.479

Tell me the measured z-score of `[N-]=[N+]=NCc1ccccc1C[C@]1(C(=O)NCCN2CCOCC2)COC(c2ccc(OCCCO)cc2)=N1` , please.
1.18

For the compound shown here, `O=C(Nc1cc(Br)ccc1C(=O)NCc1cccc(O)c1)c1ccccc1` , give the reported z-score.
-1.71

New cases:
Param item = `C=CCOc1ccc([C@@H]2CC=C(C(=O)OCC)[C@H](c3cccc(Br)c3)N2S(=O)(=O)c2ccc(C)cc2)cc1` ; retrieve measured z-score.
0.954

Which z-score reading was recorded for the compound `OCc1ccc(-c2cc[n+](Cc3cccc(OC(F)(F)F)c3)cc2)cc1` ?
-1.19

Reported z-score, compound `O=c1c2ccc(Br)cc2nc(-c2ccccc2)n1Cc1cccc(O)c1` : ____
-0.277

Consider the compound shown here: `O=C1O[C@H](c2ccccc2)[C@H](c2ccccc2)N2[C@H]1[C@@H](C(=O)N1CCCCCCC1)[C@]1(C(=O)Nc3ccc(C#CCCO)cc31)[C@H]2c1ccc(OCCO)cc1` What is its recorded z-score?
-0.84
